system: female C57BL/6 mice; test: Determination of maximum tolerated dose (MTD), serum calcium / hypercalcemia; settings: oral daily for four days; highest dose without hypercalcemia (serum calcium>10.7 mg/dl)
Please go through the items and note down their MTD (mice).

See these solved cases before continuing.
compound	MTD (mice)
CC(=O)OC1C/C(=C/C=C2\CCC[C@@]3(C)C2CCC3C2(CC#CC(O)(C(F)(F)F)C(F)(F)F)CC2)C[C@@H](OC(C)=O)C1 (stereo partly drawn) [(27)]	0.01 mg/kg
CC(=O)OC1C/C(=C/C=C2\CCC[C@]3(C)C(C(C)CC#CC(OC(C)=O)(C(F)(F)F)C(F)(F)F)=CCC23)C[C@@H](OC(C)=O)C1 (stereo partly drawn) [(5)]	0.003 mg/kg
C=C1/C(=C\C=C2/CCC[C@]3(C)C(C(C)CC#CC(OC(C)=O)(C(F)(F)F)C(F)(F)F)=CCC23)CC(OC(C)=O)C[C@@H]1OC(C)=O (stereo partly drawn) [(13)]	0.003 mg/kg
CC(=O)OC1C/C(=C/C=C2\CCC[C@]3(C)C(C(C)CC#CC(O)(C(F)(F)F)C(F)(F)F)=CCC23)C[C@@H](OC(C)=O)C1 (stereo partly drawn) [(4)]	0.01 mg/kg
CCC(O)(C#CCC(C)C1=CCC2/C(=C/C=C3/CC(OC(C)=O)C[C@H](OC(C)=O)C3)CCC[C@]12C)CC (stereo partly drawn) [(22)]	0.1 mg/kg

q: Report MTD (mice) for CC(=O)OC1C/C(=C/C=C2\CCC[C@@]3(C)C2CCC3C2(CC#CC(OC(C)=O)(C(F)(F)F)C(F)(F)F)CC2)C[C@@H](OC(C)=O)C1 (stereo partly drawn) [(26)]
a: 0.01 mg/kg

Every entry's value here was drawn from patent US20060258630A1.
